# System: HCC2429 cells
# assay explanation: Proliferation / cell viability assay (Cell Titer Glo)
# Assay type: cell-based
# test context: 72 h incubation, ATP content/proliferation by CTG, 30 to 0.0137 μM, FIG. 1
endpoint name: IC50

Lab note: measured IC50 of O=C1NC(=NCc2cccs2)S/C1=C\c1ccc2ncccc2c1 [Ro-3306] was > 10 µM
